// data source = ChEMBL document CHEMBL1201862

system: HT-29; experiment: NCI tumour cell line growth inhibition, 48 h
The source made the active and inactive calls. No stated cut-off is given here; in the data, active = GI50 up to about 1.1 µM and inactive = higher.
Select the correct class. Options are active, inactive and nothing else.

compound	label.class
COc1ccc(/C=C2\C(=O)N(C(=O)Cc3ccccc3)N=C2C)cc1OC	inactive
COc1ccc(Oc2cccc(/C=C3/C(=O)Nc4ccccc43)c2)cc1	inactive
NNC(=S)N/N=C(/C(=O)Nc1ccc([N+](=O)[O-])cc1)c1nc2ccc([N+](=O)[O-])cc2nc1O	inactive
O=c1[nH]c2c3ccccc3ccc2c2cc3c(cc12)OCO3	inactive

Lab log entry: C[C@]12CCc3nn(-c4ccccc4)nc3C1CC[C@@H]1C2CC[C@]2(C)C(=O)CCC12 (stereo not given in full) — outcome as called in the assay?
inactive

Lab log entry: Cc1nn(CNc2ccc(F)c(Cl)c2)c(=S)n1/N=C/c1ccc(-c2ccc(Cl)cc2Cl)o1 — outcome as called in the assay?
inactive

Lab log entry: C=C1C(=O)C[C@@]23CCC[C@@]12CC(O)C3 (stereo not given in full) — outcome as called in the assay?
inactive

Lab log entry: CC(=O)C1C(=O)C(=O)N(c2ccccc2C(C)C)C1=O (stereo not given) — outcome as called in the assay?
inactive

Lab log entry: CC1=C(C(=O)Nc2ccccc2)C(c2ccc(Cl)c(Cl)c2)C(C(=O)Nc2ccccc2)=C(C)N1 — outcome as called in the assay?
inactive
